The values you see were collected from the supplement of paper PMC12350171.

Tested on: Shigella flexneri
run_description: growth AUC normalised to DMSO control (fraction of control); higher = less growth inhibition, active = hit call of the paper
protocol_conditions: 20 µM
Where a name gives a salt, the structure may show the parent alone.

compound: Cc1c(N)c(=O)n(-c2ccccc2)n1C
growth AUC normalised to DMSO control: 0.998
//
compound: CC(=O)OC[C@H]1O[C@@H]([S-])[C@H](OC(C)=O)[C@@H](OC(C)=O)[C@@H]1OC(C)=O.CCP(CC)CC.[Au+]
growth AUC normalised to DMSO control: 1.01
//
compound: CCn1cc(C(=O)O)c(=O)c2cnc(N3CCNCC3)nc21
growth AUC normalised to DMSO control: 0.113
//
compound: CC(C)C(=O)Nc1ccc([N+](=O)[O-])c(C(F)(F)F)c1 [Flutamide]
growth AUC normalised to DMSO control: 1.04
//
compound: COc1cc2nc(N3CCN(C(=O)C4CCCO4)CC3)nc(N)c2cc1OC (stereo not given) [Terazosin hydrochloride]
growth AUC normalised to DMSO control: 0.96
//
compound: CN(C)CCC=C1c2ccccc2C=Cc2ccccc21 [Cyclobenzaprine hydrochloride]
growth AUC normalised to DMSO control: 0.955
//
compound: COc1cc(C)nc(-n2nc(C)cc2OC)n1 [Epirizole]
growth AUC normalised to DMSO control: 1
//
compound: O=C(O)CCC(=O)Nc1ccc(S(=O)(=O)Nc2nccs2)cc1
growth AUC normalised to DMSO control: 0.997
//
compound: CCOCCn1c(N2CCCN(C)CC2)nc2ccccc21 [Emedastine difumarate]
growth AUC normalised to DMSO control: 0.997
//
compound: Nc1nc(N)nc(-c2cc(Cl)ccc2Cl)n1 [Irsogladine maleate]
growth AUC normalised to DMSO control: 1
//
compound: C=CCSCC1Nc2cc(Cl)c(S(N)(=O)=O)cc2S(=O)(=O)N1 (stereo not given) [Althiazide]
growth AUC normalised to DMSO control: 1.08
//
compound: CN(C)/N=N/c1[nH]cnc1C(N)=O
growth AUC normalised to DMSO control: 0.976
//
compound: CN(C(=O)C(Cl)Cl)c1ccc(OC(=O)c2ccco2)cc1 [Diloxanide furoate]
growth AUC normalised to DMSO control: 0.959
//
compound: O=C(NCCO[N+](=O)[O-])c1cccnc1
growth AUC normalised to DMSO control: 0.99
//
compound: C[C@H](N)[C@H](O)c1cccc(O)c1 [Metaraminol bitartrate]
growth AUC normalised to DMSO control: 0.972
//
compound: C(=C\c1ccccc1)/CN1CCN(C(c2ccccc2)c2ccccc2)CC1
growth AUC normalised to DMSO control: 0.925
//
compound: CCN(CC)CCOC(=O)C(c1ccccc1)c1ccccc1 [Adiphenine hydrochloride]
growth AUC normalised to DMSO control: 0.99
//
compound: Cc1cccc(CN2CCN(C(c3ccccc3)c3ccc(Cl)cc3)CC2)c1 (stereo not given) [Meclozine dihydrochloride]
growth AUC normalised to DMSO control: 0.961
//
compound: CCN(CC)CCOC(=O)c1ccc(N)cc1 [Procaine hydrochloride]
growth AUC normalised to DMSO control: 0.992
//
compound: COc1ccc(C2CNC(=O)C2)cc1OC1CCCC1 (stereo not given)
growth AUC normalised to DMSO control: 0.948

----------
Tested on: S. enterica typhimurium WT;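 also: active when median AUC fell below 0.1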
run_description: growth AUC normalised to DMSO control (median) (fraction of control); higher = less growth inhibition, active = hit call of the paper
protocol_conditions: 20 µM
Structures can show the parent of a compound that is named as a salt.
Labels: t (active), f (inactive)

compound: O=C(OCCOCCO)c1ccccc1Nc1cccc(C(F)(F)F)c1 [Etofenamate]
classification: f
//
compound: CN(CCCCCCCCCCN(C)C(=O)Oc1cccc([N+](C)(C)C)c1)C(=O)Oc1cccc([N+](C)(C)C)c1 [Demecarium bromide]
classification: f
//
compound: CO/N=C(\C(=O)N[C@@H]1C(=O)N2C(C(=O)O)=C(COC(C)=O)CS[C@H]12)c1csc(N)n1 [Cefotaxime sodium salt]
classification: t
//
compound: CNC1(C)C2CCC(C2)C1(C)C (stereo unspecified) [Mecamylamine hydrochloride]
classification: f
//
compound: c1ccc2[nH]c(-c3cscn3)nc2c1 [Tiabendazole]
classification: f
//
compound: CCOc1nc2cccc(C(=O)OCc3oc(=O)oc3C)c2n1Cc1ccc(-c2ccccc2-c2noc(=O)[nH]2)cc1 [Azilsartan medoxomil]
classification: f
